Entry source: the supplement of paper PMC8728848

assay_system: Neu5Ac(a2-3)Gal(b1-4)GlcNAc(b1-2)Man
experiment_notes: glycan array binding signal (z-score within array); higher = stronger binding
reported_conditions: glycan notation: IUPAC condensed, linker removed
The entries come from a sample that favours the strongest signals as a whole.
measured_metric: glycan array binding signal (z-score)
The answer should be written as a number, with no unit following it.

Recorded results for 5 binders are shown here.
binder	observed_measurement
CD34 (Homo sapiens), P28906 (protein) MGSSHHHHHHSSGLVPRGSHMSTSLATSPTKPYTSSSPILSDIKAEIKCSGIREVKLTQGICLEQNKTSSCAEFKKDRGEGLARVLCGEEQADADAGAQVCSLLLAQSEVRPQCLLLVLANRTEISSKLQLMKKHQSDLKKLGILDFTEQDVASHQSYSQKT	1.1
WGA (Triticum vulgare) (protein) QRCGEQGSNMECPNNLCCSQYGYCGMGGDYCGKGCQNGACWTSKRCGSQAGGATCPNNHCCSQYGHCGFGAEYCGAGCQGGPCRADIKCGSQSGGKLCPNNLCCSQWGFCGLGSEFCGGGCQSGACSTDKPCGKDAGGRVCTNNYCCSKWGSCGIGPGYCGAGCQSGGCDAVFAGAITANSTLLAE	-0.304
Calsepa (Calystegia sepium), P93114 (protein) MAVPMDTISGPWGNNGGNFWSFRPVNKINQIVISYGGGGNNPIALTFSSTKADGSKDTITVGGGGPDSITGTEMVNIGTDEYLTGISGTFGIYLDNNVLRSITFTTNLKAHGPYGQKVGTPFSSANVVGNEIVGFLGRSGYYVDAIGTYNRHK	-0.255
FGF1 (Homo sapiens), P05230 (protein) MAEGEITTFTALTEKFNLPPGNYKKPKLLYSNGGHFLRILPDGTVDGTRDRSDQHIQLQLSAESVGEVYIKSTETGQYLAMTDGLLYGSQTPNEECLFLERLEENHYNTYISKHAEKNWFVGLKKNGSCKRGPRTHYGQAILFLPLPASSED	5.56
MGL2 (Mus musculus), Q8JZN1 (protein) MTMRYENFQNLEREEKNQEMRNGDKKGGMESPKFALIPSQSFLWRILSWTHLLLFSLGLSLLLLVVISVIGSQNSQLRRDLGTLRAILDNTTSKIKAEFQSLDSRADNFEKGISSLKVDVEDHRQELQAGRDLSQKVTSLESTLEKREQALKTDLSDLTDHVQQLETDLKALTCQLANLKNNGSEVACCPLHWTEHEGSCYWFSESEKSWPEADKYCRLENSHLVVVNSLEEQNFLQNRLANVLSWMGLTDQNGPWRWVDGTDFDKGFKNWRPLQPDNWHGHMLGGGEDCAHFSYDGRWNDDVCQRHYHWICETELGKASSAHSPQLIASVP	-0.034

Input: Specify reported glycan array binding signal (z-score) for the binder shown: HPA (Helix pomatia), Q2F1K8 (protein) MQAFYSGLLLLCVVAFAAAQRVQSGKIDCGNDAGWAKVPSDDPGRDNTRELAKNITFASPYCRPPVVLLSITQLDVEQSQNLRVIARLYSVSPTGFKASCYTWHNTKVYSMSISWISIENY
Output: -0.116
